# Assayed system: UniProt:Q9UBN7
# Sequence (Q9UBN7 whole entry): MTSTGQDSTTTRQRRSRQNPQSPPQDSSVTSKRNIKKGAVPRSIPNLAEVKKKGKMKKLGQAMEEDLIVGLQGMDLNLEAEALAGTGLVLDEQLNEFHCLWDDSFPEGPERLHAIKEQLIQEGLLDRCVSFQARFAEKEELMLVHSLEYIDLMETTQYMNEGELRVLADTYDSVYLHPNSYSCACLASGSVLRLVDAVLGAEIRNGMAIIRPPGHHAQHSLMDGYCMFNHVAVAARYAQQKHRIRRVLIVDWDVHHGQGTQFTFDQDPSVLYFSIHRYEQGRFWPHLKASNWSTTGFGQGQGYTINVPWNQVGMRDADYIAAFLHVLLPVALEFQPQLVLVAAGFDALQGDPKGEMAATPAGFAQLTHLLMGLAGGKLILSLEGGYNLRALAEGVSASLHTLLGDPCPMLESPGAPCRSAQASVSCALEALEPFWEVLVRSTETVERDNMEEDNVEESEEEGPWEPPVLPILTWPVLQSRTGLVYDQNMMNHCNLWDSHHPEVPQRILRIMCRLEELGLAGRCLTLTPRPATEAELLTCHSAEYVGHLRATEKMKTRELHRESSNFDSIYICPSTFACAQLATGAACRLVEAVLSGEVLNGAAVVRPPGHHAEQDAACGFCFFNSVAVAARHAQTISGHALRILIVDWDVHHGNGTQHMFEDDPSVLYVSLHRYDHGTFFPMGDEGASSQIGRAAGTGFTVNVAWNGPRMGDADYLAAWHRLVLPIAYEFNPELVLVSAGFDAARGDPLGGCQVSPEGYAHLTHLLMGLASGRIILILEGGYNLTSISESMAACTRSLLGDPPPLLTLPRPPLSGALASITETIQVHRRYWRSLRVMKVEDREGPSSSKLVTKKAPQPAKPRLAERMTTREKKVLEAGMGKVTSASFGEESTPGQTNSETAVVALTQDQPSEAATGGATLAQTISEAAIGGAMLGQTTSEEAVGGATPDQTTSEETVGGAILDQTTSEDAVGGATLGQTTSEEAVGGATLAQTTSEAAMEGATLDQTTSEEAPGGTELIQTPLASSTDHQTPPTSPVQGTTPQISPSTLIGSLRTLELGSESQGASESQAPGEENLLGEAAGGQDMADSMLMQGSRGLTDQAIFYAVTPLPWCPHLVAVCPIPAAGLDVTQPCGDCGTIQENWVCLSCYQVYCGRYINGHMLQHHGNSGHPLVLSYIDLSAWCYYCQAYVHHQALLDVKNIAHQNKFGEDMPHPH
# Measurement parameters: Sf9, dose 100.0 nM, time 40.0 min
Metric name: inhibition (%)

Example cases with answers are listed next.
1) O=C(NO)c1ccc(NCc2nc(-c3ccc(Cl)s3)nn2-c2ccccc2)cc1 39.8
2) NC(=O)c1ccc(NCc2nc(-c3ccccc3)nn2-c2ccccc2)cc1 -4.4
3) Cc1ccccc1-n1nc(-c2ccccc2)nc1CNc1ccc(C(=O)NO)cc1 57.1

a. O=C(NO)c1ccc(NCc2nc(-c3ccc(Br)o3)nn2-c2ccccc2)cc1
b. O=C(NO)c1ccc(NCc2nc(-c3ccncc3)nn2-c2ccccc2)cc1
Between a and b , which one has the lower reported inhibition value? Reply with the label of the item you choose. b
